Test Target: p110δ/p85α (Homo sapiens)
Protocol Description: Transcreener KINASE Assay, kinase inhibition of p110δ/p85α
Format: biochemical
Run Conditions: 1 uM test compound
Result Type: PI3Kδ IH % @ 1 uM (%)

[[record]]
compound = "N#Cc1c[nH]c2ncnc(N3CCCC3c3cn4ccc(Cl)c4c(=O)n3-c3ccccc3)c12 (stereo not shown)"
observed_value = 99.1

[[record]]
compound = "C[S+]([O-])c1c[nH]c2ncnc(N3CCC[C@H]3c3nn4ccc(Cl)c4c(=O)n3-c3ccccc3)c12 (stereo partly shown) [Compound 188]"
observed_value = 98.8

[[record]]
compound = "CCc1ccn2nc([C@@H]3CCN3c3ncnc4[nH]cc(C#N)c34)n(-c3ccccc3)c(=O)c12"
observed_value = 88.1

[[record]]
compound = "Cc1ccn2nc([C@@H]3CCCN3c3ncnc(N)c3Cl)n(-c3ccccc3)c(=O)c12"
observed_value = 100


====

Test Target: p110δ/p85α (Homo sapiens, UniProt O00329)
Sequence (O00329 whole entry): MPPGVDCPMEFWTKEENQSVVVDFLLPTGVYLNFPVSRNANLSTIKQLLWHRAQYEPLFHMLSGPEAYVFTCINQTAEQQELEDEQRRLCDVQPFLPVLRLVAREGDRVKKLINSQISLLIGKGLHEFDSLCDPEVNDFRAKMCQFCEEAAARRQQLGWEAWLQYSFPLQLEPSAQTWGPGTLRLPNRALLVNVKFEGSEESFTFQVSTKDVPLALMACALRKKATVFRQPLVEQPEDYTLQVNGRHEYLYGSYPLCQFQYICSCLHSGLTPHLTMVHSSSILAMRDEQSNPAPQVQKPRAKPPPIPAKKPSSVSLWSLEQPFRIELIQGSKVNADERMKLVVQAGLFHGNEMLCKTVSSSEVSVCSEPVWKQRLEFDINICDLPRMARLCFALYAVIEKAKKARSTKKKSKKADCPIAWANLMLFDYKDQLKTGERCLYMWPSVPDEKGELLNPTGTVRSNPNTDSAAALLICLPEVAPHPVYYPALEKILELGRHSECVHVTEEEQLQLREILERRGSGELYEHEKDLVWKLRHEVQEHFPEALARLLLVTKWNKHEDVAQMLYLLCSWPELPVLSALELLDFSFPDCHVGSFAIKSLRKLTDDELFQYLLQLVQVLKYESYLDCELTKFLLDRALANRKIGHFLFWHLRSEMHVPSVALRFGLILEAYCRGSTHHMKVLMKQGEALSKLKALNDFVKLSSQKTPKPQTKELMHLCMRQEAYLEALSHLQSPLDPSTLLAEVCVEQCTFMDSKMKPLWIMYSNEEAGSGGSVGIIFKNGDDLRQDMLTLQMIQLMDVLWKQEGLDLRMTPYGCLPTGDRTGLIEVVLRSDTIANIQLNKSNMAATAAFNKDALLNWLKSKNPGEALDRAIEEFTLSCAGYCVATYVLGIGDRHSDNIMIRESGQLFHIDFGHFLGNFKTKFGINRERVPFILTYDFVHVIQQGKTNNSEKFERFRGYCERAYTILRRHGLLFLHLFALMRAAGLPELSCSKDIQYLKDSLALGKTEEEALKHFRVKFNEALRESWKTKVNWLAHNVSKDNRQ
Sequence (P27986 whole entry partner): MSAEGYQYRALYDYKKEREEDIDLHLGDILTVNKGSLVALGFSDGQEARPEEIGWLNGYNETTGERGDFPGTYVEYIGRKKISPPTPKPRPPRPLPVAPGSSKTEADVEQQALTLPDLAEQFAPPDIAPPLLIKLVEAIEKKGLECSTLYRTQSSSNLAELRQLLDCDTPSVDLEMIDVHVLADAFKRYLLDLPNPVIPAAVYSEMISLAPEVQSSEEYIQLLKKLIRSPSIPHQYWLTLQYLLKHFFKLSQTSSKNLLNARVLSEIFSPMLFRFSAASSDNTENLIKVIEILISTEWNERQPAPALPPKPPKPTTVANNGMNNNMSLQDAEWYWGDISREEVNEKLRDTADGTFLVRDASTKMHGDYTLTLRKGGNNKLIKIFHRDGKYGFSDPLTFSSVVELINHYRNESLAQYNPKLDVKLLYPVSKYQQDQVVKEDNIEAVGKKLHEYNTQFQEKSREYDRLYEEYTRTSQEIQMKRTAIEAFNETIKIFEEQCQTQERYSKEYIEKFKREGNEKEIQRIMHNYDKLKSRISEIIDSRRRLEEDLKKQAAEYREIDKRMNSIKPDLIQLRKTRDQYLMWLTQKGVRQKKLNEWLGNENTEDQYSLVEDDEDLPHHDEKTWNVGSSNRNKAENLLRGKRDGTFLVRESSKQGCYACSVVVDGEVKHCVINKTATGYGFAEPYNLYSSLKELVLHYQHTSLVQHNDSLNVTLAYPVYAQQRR
Protocol Description: Transcreener KINASE Assay, kinase inhibition of p110δ/p85α
Format: biochemical
Run Conditions: 1 uM test compound
Result Type: PI3Kδ IH % @ 1 uM (%)

[[record]]
compound = "C[C@H]1CN(c2ncnc3[nH]cc(C#N)c23)[C@@H]1c1nn2ccc(F)c2c(=O)n1-c1ccccc1"
observed_value = 99.8

[[record]]
compound = "COc1ncc(-c2n[nH]c3ncnc(N4CC[C@H]4c4nn5ccc(Cl)c5c(=O)n4-c4ccccc4)c23)cn1"
observed_value = 99.6

[[record]]
compound = "CC(=O)c1c[nH]c2ncnc(NC(C)c3cn4ccc(Cl)c4c(=O)n3-c3cccc(F)c3)c12 (stereo not shown)"
observed_value = 99.1

[[record]]
compound = "CC(Nc1ncnc2[nH]cc(S(C)(=O)=O)c12)c1cc2ncc(Cl)n2c(=O)n1-c1ccccc1 (stereo not shown)"
observed_value = 88.8


====

Test Target: p110γ (Homo sapiens, UniProt P48736)
Sequence (P48736 whole entry): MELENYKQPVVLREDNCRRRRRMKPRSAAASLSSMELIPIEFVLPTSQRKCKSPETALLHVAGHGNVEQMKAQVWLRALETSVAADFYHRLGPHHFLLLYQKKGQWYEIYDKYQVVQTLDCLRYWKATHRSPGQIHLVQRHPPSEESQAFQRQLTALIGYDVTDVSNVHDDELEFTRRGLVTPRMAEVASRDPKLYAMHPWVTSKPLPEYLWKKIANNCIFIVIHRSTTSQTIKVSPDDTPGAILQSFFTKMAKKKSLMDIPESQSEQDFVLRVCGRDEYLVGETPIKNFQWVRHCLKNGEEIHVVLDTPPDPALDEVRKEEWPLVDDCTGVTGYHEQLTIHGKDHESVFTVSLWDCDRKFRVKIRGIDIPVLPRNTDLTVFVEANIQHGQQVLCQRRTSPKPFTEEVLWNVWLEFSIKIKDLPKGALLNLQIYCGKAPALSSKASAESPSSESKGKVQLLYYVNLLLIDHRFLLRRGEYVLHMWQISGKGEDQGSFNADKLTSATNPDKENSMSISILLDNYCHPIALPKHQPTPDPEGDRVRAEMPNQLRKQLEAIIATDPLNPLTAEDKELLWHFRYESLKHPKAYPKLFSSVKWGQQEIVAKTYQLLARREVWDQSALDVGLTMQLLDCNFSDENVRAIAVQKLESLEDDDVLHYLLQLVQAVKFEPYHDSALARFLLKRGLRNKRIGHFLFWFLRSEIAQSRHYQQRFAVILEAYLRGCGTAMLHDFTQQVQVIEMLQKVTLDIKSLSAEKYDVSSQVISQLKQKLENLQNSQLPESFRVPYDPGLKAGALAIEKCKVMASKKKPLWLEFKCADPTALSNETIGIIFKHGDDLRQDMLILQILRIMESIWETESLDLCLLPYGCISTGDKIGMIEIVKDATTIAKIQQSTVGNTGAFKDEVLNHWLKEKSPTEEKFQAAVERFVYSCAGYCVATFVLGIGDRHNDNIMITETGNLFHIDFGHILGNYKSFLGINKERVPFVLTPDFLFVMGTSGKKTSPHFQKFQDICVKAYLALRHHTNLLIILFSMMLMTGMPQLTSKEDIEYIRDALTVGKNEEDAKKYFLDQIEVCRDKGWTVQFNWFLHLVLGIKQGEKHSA
Protocol Description: Transcreener KINASE Assay, kinase inhibition of p110γ
Format: biochemical
Run Conditions: 1 uM test compound
Protocol: Kinase Inhibition assays of p110α/p85α, p110β/p85α, p110δ/p85α and p110γ PI3K kinases including p110α/p85α, p110δ/p85α and p110γ are purchased from Invitrogen, and p110β/p85α is from Millipore. Primary screening data and IC50 values are measured using Transcreener™ KINASE Assay (Bellbrook, Catalog #3003-10K). […] The plate is sealed again and incubated for 60 min at room temperature, and then measure fluorescence polarization by Tecan Infinite F500 Reader. […]
Result Type: PI3Kγ IH % @ 1 uM (%)

[[record]]
compound = "CC(=O)c1cnc(N)nc1N1C[C@H](C)C1c1nn2ccc(F)c2c(=O)n1-c1ccc(F)cc1 (stereo partly shown)"
observed_value = 91.4

[[record]]
compound = "CCC(Nc1ncnc2[nH]cnc12)c1cn2ccc(Cl)c2c(=O)n1-c1cccc(F)c1 (stereo not shown)"
observed_value = 87.8

[[record]]
compound = "N#Cc1ncc(-c2c[nH]c3ncnc(N4CC[C@H]4c4nn5ccc(F)c5c(=O)n4-c4ccccc4)c23)cn1"
observed_value = 98.4

[[record]]
compound = "Cn1cc(-c2cnc(N)nc2N2CC[C@H]2c2nn3ccc(Cl)c3c(=O)n2-c2ccccc2)cn1"
observed_value = 87.2

[[record]]
compound = "CC(Nc1ncnc(N)c1C#N)c1cn2ccc(Cl)c2c(=O)n1-c1ccccc1 (stereo not shown)"
observed_value = 94.8

